# TARGET_UNDER_TEST: Cyclin-dependent kinase 1/cyclin B1 (Homo sapiens, UniProt P06493)
# Sequence (P06493 whole entry): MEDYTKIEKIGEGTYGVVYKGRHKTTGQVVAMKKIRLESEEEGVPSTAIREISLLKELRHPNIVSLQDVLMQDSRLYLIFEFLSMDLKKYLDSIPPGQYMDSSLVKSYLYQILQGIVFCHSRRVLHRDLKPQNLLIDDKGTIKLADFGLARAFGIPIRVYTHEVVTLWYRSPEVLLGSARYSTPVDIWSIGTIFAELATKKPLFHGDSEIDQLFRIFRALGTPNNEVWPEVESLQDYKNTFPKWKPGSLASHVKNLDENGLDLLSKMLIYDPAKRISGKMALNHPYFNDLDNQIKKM
# Sequence (P14635 whole entry, further chain): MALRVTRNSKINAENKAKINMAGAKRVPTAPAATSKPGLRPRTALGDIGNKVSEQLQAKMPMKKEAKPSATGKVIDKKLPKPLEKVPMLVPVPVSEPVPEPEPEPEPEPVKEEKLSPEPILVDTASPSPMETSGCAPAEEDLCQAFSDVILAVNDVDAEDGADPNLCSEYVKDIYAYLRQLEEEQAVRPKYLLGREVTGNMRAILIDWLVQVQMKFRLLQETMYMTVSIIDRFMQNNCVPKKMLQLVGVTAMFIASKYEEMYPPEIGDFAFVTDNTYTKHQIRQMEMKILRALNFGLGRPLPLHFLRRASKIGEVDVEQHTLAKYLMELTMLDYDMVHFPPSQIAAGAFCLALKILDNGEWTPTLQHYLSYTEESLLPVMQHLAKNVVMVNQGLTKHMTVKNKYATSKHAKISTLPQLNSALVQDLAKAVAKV
# PROTOCOL_NOTES: Inhibition of CDK1/Cyclin B (unknown origin)
Could you please report measured IC50 for the items listed next?
Provide the reading as a plain figure in µM.

What value of IC50 on Cyclin-dependent kinase 1/cyclin B1 (Homo sapiens, UniProt P06493) does "Cc1c(-c2nc3c(OCC4CCCCC4)nc(N)nc3[nH]2)cccc1S(N)(=O)=O" have? 2.8

What value of IC50 on Cyclin-dependent kinase 1/cyclin B1 (Homo sapiens, UniProt P06493) does "CC(C)c1nc2c(OCC3CCCCC3)nc(N)nc2[nH]1" have? 92.3

What value of IC50 on Cyclin-dependent kinase 1/cyclin B1 (Homo sapiens, UniProt P06493) does "c1ccc(Nc2nc(OCC3CCCCC3)c3nc[nH]c3n2)cc1" have? 10

What value of IC50 on Cyclin-dependent kinase 1/cyclin B1 (Homo sapiens, UniProt P06493) does "Cc1ccccc1-c1nc2c(OCC3CCCCC3)nc(N)nc2[nH]1" have? 93.6

What value of IC50 on Cyclin-dependent kinase 1/cyclin B1 (Homo sapiens, UniProt P06493) does "CCc1nc2c(OCC3CCCCC3)nc(N)nc2[nH]1" have? 77.5
